B1: INTS3 (parent)
chain: FHPIKETVVEEPVDITPYLDQLDE

Variants of: B1
assay_details: protein stability index of a GFP-peptide fusion (GPS, HEK-293T) (PSI 1-6); higher = more stable;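 further: lentivirally expressed fusions sorted by FACS into six bins by GFP to DsRed ratio, PSI derived from sequencing read proportions per bin multiplied by bin number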
assay_context: c terminus: a fixed tail appended
Below, each entry is listed with its recorded protein stability index.
Keep it simple and answer with nothing but the number.

Below, each entry is followed by its recorded protein stability index result.
FHPIKETVVEEPVDITPFLDQLDE [Y18F]; 3.79
FHPIKETVVEEPVDITPYLDQLQE [D23Q]; 3.02
FHWIKETVVEEPVDITPYLDQLDE [P3W]; 1.73
FHPIKETVVEEPMDITPYLDQLDE [V13M]; 3
FHPIKETVVEEPVDITIYLDQLDE [P17I]; 2.49
FHSIKETVVEEPVDITPYLDQLDE [P3S]; 4.03

In plain terms, FHRIKETVVEEPVDITPYLDQLDE [P3R] has a documented protein stability index of 3.76

In plain terms, FHPIKETVVEEPCDITPYLDQLDE [V13C] has a documented protein stability index of 3.08

In plain terms, FHPIKETVVEEPVDITPYHDQLDE [L19H] has a documented protein stability index of 3.18

The measured values listed here are drawn from the supplement of paper PMC10567573.
